Listed here are compounds together with their documented Rape plant response rating.
Tested on: rape
Assay: Test B pre/postemergence rape
Format: in vivo, Brassica napus
Conditions: Preemergence, Rate 125 g/ha; scale of 0 to 10 where 0 is no effect and 10 is complete control
measured_attribute: Rape plant response rating

{"columns": ["compound", "measured_number"],
 "data": [
  ["CC[C@@H](C)n1c(=O)on(C(=O)N(c2ccc(F)cc2F)C(C)C)c1=O [Compound 667]", 8],
  ["CC(=O)NCn1c(=O)on(C(=O)N(c2ccccc2)C(C)C)c1=O [Compound 621]", 0],
  ["CC(C)N(C(=O)n1oc(=O)n(CC(=O)C2CCC2)c1=O)c1ccc(Cl)cc1 [Compound 643]", 0],
  ["CCCCCn1c(=O)on(C(=O)N(c2ccc(F)cc2F)C(C)C)c1=O [Compound 636]", 2]
]}
